# Assay system: Human HDAC5 (Homo sapiens, UniProt Q9UQL6)
# Construct: full length with C-terminal His tag, MW=51.1 kDa; His (C); host or cells: baculovirus expression system
# Sequence (Q9UQL6 656-1122 limits assumed): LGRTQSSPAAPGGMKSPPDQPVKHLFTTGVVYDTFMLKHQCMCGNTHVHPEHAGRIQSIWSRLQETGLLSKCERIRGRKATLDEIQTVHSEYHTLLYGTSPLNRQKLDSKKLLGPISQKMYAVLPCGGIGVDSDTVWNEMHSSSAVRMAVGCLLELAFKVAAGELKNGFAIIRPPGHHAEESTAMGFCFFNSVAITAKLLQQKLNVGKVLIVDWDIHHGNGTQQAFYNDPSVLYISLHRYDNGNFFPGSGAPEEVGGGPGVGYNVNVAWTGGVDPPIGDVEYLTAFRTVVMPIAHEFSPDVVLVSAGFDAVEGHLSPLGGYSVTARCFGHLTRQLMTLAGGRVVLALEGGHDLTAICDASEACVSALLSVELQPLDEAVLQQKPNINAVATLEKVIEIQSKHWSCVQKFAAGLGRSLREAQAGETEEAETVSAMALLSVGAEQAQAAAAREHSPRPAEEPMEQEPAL
# Assay overview: HDAC5 biochemical assay, class IIa-specific substrate
# Run parameters: read-out: HDAC Isoform IC50 (nM) 5
Experimental endpoint: IC50

Known IC50 results, listed for orientation:
[[record]]
molecule = "CN(C)c1nccc(N(Cc2ccc(-c3noc(C(F)(F)F)n3)s2)c2cnccn2)n1 [Example CC]"
experimental_endpoint = "IC50"
result = "≤ 10000 nM"

[[record]]
molecule = "FC(F)(F)c1cc(N(Cc2ccc(-c3noc(C(F)(F)F)n3)s2)c2cnccn2)ncn1 [Example CJ]"
experimental_endpoint = "IC50"
result = "≤ 10000 nM"

[[record]]
molecule = "O=C(c1nccnc1N(Cc1ccc(-c2noc(C(F)(F)F)n2)s1)c1cnccn1)N1CCC1 [Example GP]"
experimental_endpoint = "IC50"
result = "≤ 10000 nM"


Report IC50 for every entry below.
1. FC(F)(F)c1nc(-c2ccc(CN(c3cnccn3)c3cccc(N4CCOCC4)n3)s2)no1 [Example W]
2. FC(F)(F)c1nc(-c2ccc(CN(c3cnccn3)c3ccc(-c4ccccc4)nn3)s2)no1 [Example DN]

1: ≤ 10000 nM; 2: ≤ 500 nM

Report IC50 for every entry below.
1. FC(F)(F)c1nc(-c2ccc(CN(c3cnccn3)c3cc(N4CCOCC4)cnn3)s2)no1 [Example FP]
2. FC(F)(F)c1cnnc(N(Cc2ccc(-c3noc(C(F)(F)F)n3)s2)c2ncccn2)c1 [Example EK]
3. FC(F)(F)c1nc(-c2ccc(CN(c3cnccn3)c3cnc(-c4ccco4)cn3)s2)no1 [Example BJ]

1: ≤ 500 nM; 2: ≤ 10000 nM; 3: ≤ 10000 nM

---

# Assay system: Human HDAC9 (Homo sapiens, UniProt Q9UKV0)
# Construct: amino acids 604-1066 with C-terminal His tag; His (C); host or cells: baculovirus expression system
# Sequence (Q9UKV0 604-1066 isoform Q9UKV0-5): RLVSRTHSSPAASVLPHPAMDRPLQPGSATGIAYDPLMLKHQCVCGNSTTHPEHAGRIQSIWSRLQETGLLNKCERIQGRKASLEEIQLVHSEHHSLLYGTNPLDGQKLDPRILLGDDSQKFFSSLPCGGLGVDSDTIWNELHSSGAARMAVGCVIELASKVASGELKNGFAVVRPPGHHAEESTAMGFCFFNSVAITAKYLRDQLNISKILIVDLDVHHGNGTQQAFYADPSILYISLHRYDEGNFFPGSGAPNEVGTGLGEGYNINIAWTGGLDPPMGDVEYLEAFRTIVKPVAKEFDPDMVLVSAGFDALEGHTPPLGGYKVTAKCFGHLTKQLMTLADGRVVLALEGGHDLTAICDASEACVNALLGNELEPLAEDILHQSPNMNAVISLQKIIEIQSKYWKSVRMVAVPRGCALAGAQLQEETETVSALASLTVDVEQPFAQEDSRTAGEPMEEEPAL
# Assay overview: HDAC9 biochemical assay, class IIa-specific substrate
# Run parameters: read-out: HDAC Isoform IC50 (nM) 9
Exercise: for every item that follows, state its recorded IC50.

[[record]]
molecule = "FC(F)(F)c1nc(-c2ccc(CN(c3cnccn3)c3cc(N4CCOCC4)ncn3)s2)no1 [Example CL]"
experimental_endpoint = "IC50"
result = "≤ 10000 nM"


Report IC50 for every entry below.
1. Cn1ccc2nc(N(Cc3ccc(-c4noc(C(F)(F)F)n4)s3)c3cnccn3)cnc21 [Example BO]
2. NC(=O)c1cnnc(N(Cc2ccc(-c3noc(C(F)(F)F)n3)s2)c2cnccn2)c1 [Example DX]

1: ≤ 10000 nM; 2: ≤ 10000 nM

Report IC50 for every entry below.
1. Cc1ccc(N(Cc2ccc(-c3noc(C(F)(F)F)n3)s2)c2cnccn2)nn1 [Example DF]
2. Cc1cnc(N(Cc2ccc(-c3noc(C(F)(F)F)n3)s2)c2cnccn2)nc1 [Example AW]
3. FC(F)(F)c1nc(-c2ccc(CN(c3cnccn3)c3ccc4ncccc4n3)s2)no1 [Example X]
4. COc1cnc(N(Cc2ccc(-c3noc(C(F)(F)F)n3)s2)c2cc(C(F)(F)F)cnn2)cn1 [Example EP]
5. CN(C)c1nccc(N(Cc2ccc(-c3noc(C(F)(F)F)n3)s2)c2cnccn2)n1 [Example CC]

≤ 10000 nM
≤ 10000 nM
≤ 1000 nM
> 10000 nM
≤ 10000 nM

---

# Assay system: Recombinant human HDAC6 (Homo sapiens, UniProt Q9UBN7)
# Construct: full length, MW=159 kDa; GST (N); host or cells: Sf9 insect cells (baculovirus)
# Sequence (Q9UBN7 1-1215): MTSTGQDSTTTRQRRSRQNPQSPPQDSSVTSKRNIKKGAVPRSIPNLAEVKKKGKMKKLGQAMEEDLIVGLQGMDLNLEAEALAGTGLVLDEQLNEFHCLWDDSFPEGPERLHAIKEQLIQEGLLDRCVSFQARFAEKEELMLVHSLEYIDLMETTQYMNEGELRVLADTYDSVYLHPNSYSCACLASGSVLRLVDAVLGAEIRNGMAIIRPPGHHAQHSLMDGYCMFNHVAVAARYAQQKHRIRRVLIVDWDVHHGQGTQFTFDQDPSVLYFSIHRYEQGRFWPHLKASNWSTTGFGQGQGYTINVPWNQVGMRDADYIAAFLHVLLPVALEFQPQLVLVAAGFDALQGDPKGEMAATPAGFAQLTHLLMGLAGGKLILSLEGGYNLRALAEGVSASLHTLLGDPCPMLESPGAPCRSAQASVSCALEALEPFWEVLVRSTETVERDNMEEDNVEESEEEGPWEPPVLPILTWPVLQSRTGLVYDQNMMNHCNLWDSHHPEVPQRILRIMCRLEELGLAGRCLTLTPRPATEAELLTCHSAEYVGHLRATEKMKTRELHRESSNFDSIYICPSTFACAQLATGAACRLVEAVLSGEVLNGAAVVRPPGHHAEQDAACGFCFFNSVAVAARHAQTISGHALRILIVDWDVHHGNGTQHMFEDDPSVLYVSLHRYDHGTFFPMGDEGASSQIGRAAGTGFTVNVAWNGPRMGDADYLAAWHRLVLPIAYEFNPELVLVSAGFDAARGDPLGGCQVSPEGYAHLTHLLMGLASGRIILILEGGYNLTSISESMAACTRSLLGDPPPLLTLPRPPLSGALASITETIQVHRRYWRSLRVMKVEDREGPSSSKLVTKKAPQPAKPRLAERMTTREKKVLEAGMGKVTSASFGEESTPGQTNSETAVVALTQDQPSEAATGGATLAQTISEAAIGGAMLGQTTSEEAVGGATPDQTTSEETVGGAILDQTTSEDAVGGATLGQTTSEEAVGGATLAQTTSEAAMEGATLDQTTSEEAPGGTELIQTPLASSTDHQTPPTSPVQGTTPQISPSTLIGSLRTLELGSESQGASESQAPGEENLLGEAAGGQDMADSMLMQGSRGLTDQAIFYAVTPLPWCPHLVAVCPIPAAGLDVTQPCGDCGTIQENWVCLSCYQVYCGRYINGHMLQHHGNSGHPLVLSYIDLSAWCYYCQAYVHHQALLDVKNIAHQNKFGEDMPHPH
# Assay overview: HDAC6 biochemical assay, AMC-labeled peptide substrate
# Run parameters: HDAC6; read-out: HDAC Isoform IC50 (nM) 6
# Experimental: Activity against all zinc-dependent HDACs 1 to 11 was assessed by using an acetylated AMC-labeled peptide substrate. The substrate RHKK(Ac)AMC was used for HDAC1, HDAC2, HDAC3, HDAC6 and HDAC10; the substrate used for HDAC8 was RHK(Ac)K(Ac)AMC. Activity against the class IIa HDACs (HDAC4, 5, 7, 9) and HDAC11 was determined using a class IIa-specific substrate, BOC-Lys(trifluoroacetyl)-AMC (“Trifluoroacetyl Lysine”; see Lahm et al, 2007, PNAS, 104, 17335-17340). […]
Experimental endpoint: IC50

[[record]]
structure = "FC(F)(F)c1nc(-c2ccc(CN(c3ccc(N4CCCC4)nc3)c3cnccn3)s2)no1"
experimental_endpoint = "IC50"
result = "> 10000 nM"

[[record]]
structure = "CN(C)c1nccc(N(Cc2ccc(-c3noc(C(F)(F)F)n3)s2)c2cnccn2)n1"
experimental_endpoint = "IC50"
result = "≤ 10000 nM"

[[record]]
structure = "FC(F)(F)c1nc(-c2ccc(CN(c3cnccn3)c3ccc4ccncc4n3)s2)no1"
experimental_endpoint = "IC50"
result = "≤ 1000 nM"


// next entry
Query (compound): FC(F)(F)c1nc(-c2ccc(CN(c3cnccn3)c3ccc4nccn4n3)s2)no1 ; field requested: IC50
≤ 1000 nM

---

# Assay system: Human HDAC5 (Homo sapiens, UniProt Q9UQL6)
# Construct: full length with C-terminal His tag, MW=51.1 kDa; His (C); host or cells: baculovirus expression system
# Assay overview: HDAC5 biochemical assay, class IIa-specific substrate
# Run parameters: read-out: HDAC Isoform IC50 (nM) 5
Exercise: for every item that follows, state its recorded IC50.

Report IC50 for every entry below.
1. Cc1ncc(N(Cc2ccc(-c3noc(C(F)(F)F)n3)s2)c2cnccn2)c(C)n1
2. FC(F)c1cnnc(N(Cc2ccc(-c3noc(C(F)(F)F)n3)s2)c2cnccn2)c1
3. COc1ccnc(N(Cc2ccc(-c3noc(C(F)(F)F)n3)s2)c2cnccn2)n1
4. CN(C)c1cc(N(Cc2ccc(-c3noc(C(F)(F)F)n3)s2)c2cnccn2)ncn1
5. CC(C)(O)c1cnnc(N(Cc2ccc(-c3noc(C(F)(F)F)n3)s2)c2cnccn2)c1
6. CC(C)OC1CN(C(=O)c2cnnc(N(Cc3ccc(-c4noc(C(F)(F)F)n4)s3)c3cnccn3)c2)C1

1: ≤ 500 nM; 2: ≤ 1000 nM; 3: ≤ 10000 nM; 4: ≤ 10000 nM; 5: ≤ 1000 nM; 6: ≤ 500 nM

---

# Assay system: Human HDAC7 (Homo sapiens, UniProt Q8WUI4)
# Construct: (a.a. 518-end) with N-terminal GST tag; GST (N); host or cells: baculovirus expression system
# Sequence (Q8WUI4 518-952 limits assumed): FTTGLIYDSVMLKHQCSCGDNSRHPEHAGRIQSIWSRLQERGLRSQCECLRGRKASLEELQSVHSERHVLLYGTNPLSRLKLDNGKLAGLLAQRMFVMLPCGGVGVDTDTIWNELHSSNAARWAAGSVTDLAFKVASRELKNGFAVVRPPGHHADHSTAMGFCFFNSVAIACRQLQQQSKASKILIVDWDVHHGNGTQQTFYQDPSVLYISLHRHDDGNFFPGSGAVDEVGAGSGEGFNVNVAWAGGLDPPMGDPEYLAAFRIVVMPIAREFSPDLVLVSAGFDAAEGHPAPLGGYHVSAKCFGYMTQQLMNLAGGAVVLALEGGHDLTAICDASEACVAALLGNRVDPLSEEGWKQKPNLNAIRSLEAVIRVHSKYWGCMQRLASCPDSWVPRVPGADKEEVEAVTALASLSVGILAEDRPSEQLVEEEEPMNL
# Assay overview: HDAC7 biochemical assay, class IIa-specific substrate
# Run parameters: read-out: HDAC Isoform IC50 (nM) 7
Exercise: for every item that follows, state its recorded IC50.

Known IC50 results, listed for orientation:
[[record]]
structure = "O=C(O)c1cnnc(N(Cc2ccc(-c3noc(C(F)(F)F)n3)s2)c2cnccn2)c1"
result = "≤ 10000 nM"

[[record]]
structure = "CN(C)C1CN(C(=O)c2cnnc(N(Cc3ccc(-c4noc(C(F)(F)F)n4)s3)c3cnccn3)c2)C1"
result = "≤ 1000 nM"

[[record]]
structure = "CC(C)(O)c1cnnc(N(Cc2ccc(-c3noc(C(F)(F)F)n3)s2)c2cnccn2)c1"
result = "≤ 1000 nM"

[[record]]
structure = "FC(F)(F)c1ccc(N(Cc2ccc(-c3noc(C(F)(F)F)n3)s2)c2cnccn2)nc1"
result = "> 10000 nM"

[[record]]
structure = "FC(F)(F)c1nc(-c2ccc(CN(c3cnccn3)c3ccc(-n4cccn4)nn3)s2)no1"
result = "≤ 1000 nM"

[[record]]
structure = "O=C(c1ccc(N(Cc2ccc(-c3noc(C(F)(F)F)n3)s2)c2cnccn2)nn1)N1C[C@@H]2C[C@H]1C[S@@+]2[O-]"
result = "≤ 500 nM"

[[record]]
structure = "O=C(c1nccnc1N(Cc1ccc(-c2noc(C(F)(F)F)n2)s1)c1cnccn1)N1CC(O)(C(F)(F)F)C1"
result = "≤ 10000 nM"

[[record]]
structure = "O=C(c1cnnc(N(Cc2ccc(-c3noc(C(F)(F)F)n3)s2)c2cnccn2)c1)N1C2CCC1COC2"
result = "≤ 10000 nM"

[[record]]
structure = "FC(F)(F)c1ccnc(N(Cc2ccc(-c3noc(C(F)(F)F)n3)s2)c2cnccn2)c1"
result = "> 10000 nM"

[[record]]
structure = "COc1cncc(N(Cc2ccc(-c3noc(C(F)(F)F)n3)s2)c2cnccn2)n1"
result = "≤ 10000 nM"


Report IC50 for every entry below.
1. Cc1ncncc1N(Cc1ccc(-c2noc(C(F)(F)F)n2)s1)c1cnccn1
2. O=C(c1ccc(N(Cc2ccc(-c3noc(C(F)(F)F)n3)s2)c2cnccn2)nn1)N1CCC2(COC2)C1
3. Cc1cncc(N(Cc2ccc(-c3noc(C(F)(F)F)n3)s2)c2cc(C(F)(F)F)cnn2)n1
4. O=C(c1cnnc(N(Cc2ccc(-c3noc(C(F)(F)F)n3)s2)c2cnccn2)c1)N1CC(C(F)(F)F)C1
5. COc1ncncc1N(Cc1ccc(-c2noc(C(F)(F)F)n2)s1)c1cnccn1
6. O=C(c1cnnc(N(Cc2ccc(-c3noc(C(F)(F)F)n3)s2)c2cnccn2)c1)N1CC(C(F)F)C1

1. ≤ 500 nM
2. ≤ 500 nM
3. ≤ 10000 nM
4. ≤ 1000 nM
5. ≤ 10000 nM
6. ≤ 500 nM
